System: XIP peptide (Xip251-270) binding
Assay: small-molecule binders of XIP peptide, primary screen, biochemical, small-molecule microarray, fluorescence 635/667 nm, 0.1 µg/mL protein (AID 1182)
Details: fluorescent protein binding, 635 nm, higher = more signal, called active from +8 up or from −8 down
EXPERIMENTAL READOUT: composite z-score
Lab note: jot down the number only; don't add units.

For orientation, consider the following solved cases.
INSERT INTO assay_data (compound, result_value) VALUES
  ('CO[C@H]1O[C@H](CO)[C@@H](OC(=O)CCc2ccccc2)[C@H](OC(=O)c2cc3ccccc3[nH]2)[C@H]1OC(=O)c1cc2ccccc2[nH]1', 0.983),
  ('COCCOC(=O)N1C(=O)[C@@]2(c3cc(C#CCNC(N)=O)ccc31)[C@H](c1ccc(O)cc1)N1[C@H](c3ccccc3)[C@H](c3ccccc3)OC(=O)[C@H]1[C@@H]2C(N)=O', -0.256),
  ('Nc1cc(Br)ccc1C(=O)O', 0.513),
  ('CCCNC(=O)[C@@]1(Sc2ccc(C)cc2)CC(=O)N(C2CCCCC2)[C@@H]1c1ccc(CO)cc1I', 0.398),
  ('COc1ccc([Si](C)(C)[C@H]2[C@H](CC(=O)N3Cc4ccccc4C[C@H]3CO)O[C@@]3(C(=O)N(Cc4ccc(N5C(=O)c6cccc7cccc5c67)cc4)c4ccccc43)[C@@H]2C)cc1', 1.23),
  ('CCN(CC)c1ccc(N2CC=CC34O[C@@H]5C=CCCOC(=O)C5[C@H]3C(=O)N(CCO)[C@@H]4C2=O)cc1 (some centres undefined)', -0.828);

Entry CC(C)(C)OC(=O)CC[C@]12N=C(c3ccc(OCCCO)cc3)O[C@H]1c1ccccc1N(Cc1ccccc1)C2=O , composite z-score reported as -0.326

Entry C=C[C@@H](C)[C@@H](OC(=O)Nc1ccc(SC)cc1)c1ccc(OCCO)cc1 , composite z-score reported as -0.0412

Entry C=C(COC)/C(=C/C[C@@H](OC(C)=O)c1ccc(CO)o1)c1cc(C(=O)OC)ccc1OC , composite z-score reported as 0.824
